- System name: Neuronal acetylcholine receptor; alpha3/beta4 (Rattus norvegicus) (UniProt P04757+P12392)
- Experiment: Agonistic activity as [86Rb+] efflux from KXalpha-3-beta-4R2 cells expressing rat Nicotinic acetylcholine receptor at 100 uM
- Assay type: functional
The recorded Stimulation of each item maps onto one of these classes: low: < 3%; medium: ≥ 3% and < 4%; high: ≥ 4%

>>> df
                                   molecule  group_label
0  N#Cc1ccc(-c2cc(C3CC4CCC3N4)cnc2F)cc1 (centres undefined)         high
1  Fc1ncc(C2CC3CCC2N3)cc1-c1ccc(Cl)c(Cl)c1 (centres undefined)          low
2         Clc1ccc(C2CC3CCC2N3)cn1 (racemic)         high
3  Fc1ncc(C2CC3CCC2N3)cc1-c1ccc(Cl)cc1 (centres undefined)       medium

// query Quick check: band for Cc1cc(-c2cc(C3CC4CCC3N4)cnc2F)ccc1F (centres undefined)
// result low

// query Quick check: band for COc1ccc(-c2cc(C3CC4CCC3N4)cnc2Cl)cc1 (centres undefined)
// result medium

// query Quick check: band for Clc1ncc(C2CC3CCC2N3)cc1-c1ccccc1 (centres undefined)
// result high

// query Quick check: band for Cc1ccc(-c2cc(C3CC4CCC3N4)cnc2F)cc1 (centres undefined)
// result low

// query Quick check: band for Cc1ccc(-c2cc(C3CC4CCC3N4)cnc2Cl)cc1 (centres undefined)
// result medium
